Known EC50 of a selection of molecules
System: A2058
protocol_description: Antiproliferative activity against human A2058 cells assessed as reduction in cell viability measured after 24 hrs by celltiter-blue assay
Type: functional, cell-based
experimental_context: A2058, 24 h
metric: EC50 (µM)

* CS(=O)(=O)c1ccc(C(CCCO)=C(c2ccc(F)cc2)c2ccc(F)cc2)cc1 | 27.5
* CS(=O)(=O)c1ccc(C(CCCCO)=C(c2ccc(F)cc2)c2ccc(F)cc2)cc1 | 39.9
* CC/C(=C(\c1ccccc1)c1ccc(OCCN(C)C)cc1)c1ccccc1 [TAMOXIFEN] | 12.5

###

experimental_target: Estrogen receptor beta (Homo sapiens)
Sequence (Q92731 whole entry): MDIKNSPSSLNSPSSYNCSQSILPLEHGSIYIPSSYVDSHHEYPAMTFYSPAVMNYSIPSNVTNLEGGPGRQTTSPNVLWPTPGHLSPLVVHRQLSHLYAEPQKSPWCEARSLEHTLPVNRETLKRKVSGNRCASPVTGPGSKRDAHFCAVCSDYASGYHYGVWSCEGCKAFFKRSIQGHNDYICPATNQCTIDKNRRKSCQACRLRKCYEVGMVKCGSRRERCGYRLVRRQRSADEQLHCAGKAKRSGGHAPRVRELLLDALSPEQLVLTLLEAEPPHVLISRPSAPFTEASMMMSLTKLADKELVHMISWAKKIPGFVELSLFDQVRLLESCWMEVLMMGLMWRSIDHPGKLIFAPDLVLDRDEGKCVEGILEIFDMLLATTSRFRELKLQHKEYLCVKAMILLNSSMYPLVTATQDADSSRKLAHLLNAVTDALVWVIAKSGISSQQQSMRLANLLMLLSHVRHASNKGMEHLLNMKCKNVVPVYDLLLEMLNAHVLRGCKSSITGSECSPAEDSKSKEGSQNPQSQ
Exam item: assign MET to entries whose IC50 is below 200 nM and NOT MET to entries at or above 200 nM. Note that a value of exactly 200 nM receives NOT MET.

- CS(=O)(=O)c1ccc(C(CCCCO)=C(c2ccc(F)cc2)c2ccc(F)cc2)cc1: MET
- CS(=O)(=O)c1ccc(C(CCCO[N+](=O)[O-])=C(c2ccccc2)c2ccccc2)cc1: NOT MET
- CS(=O)(=O)c1ccc(C(CCCCO)=C(c2ccccc2)c2ccccc2)cc1: NOT MET
- CS(=O)(=O)c1ccc(C(CCCCO[N+](=O)[O-])=C(c2ccccc2)c2ccccc2)cc1: NOT MET

Hello, the source for this data is ChEMBL document CHEMBL4359812, in case you need it.
